- assay_text: Plasma pharmacokinetics of TG101348, non-compartmental analysis
- Assay type: in vivo, human
- run_parameters: human, plasma, oral; 120 mg/day (n = 3); multiple daily doses; Cycle 1, Day 28; median
- Description: The concentration-time curves of TG101348 in plasma were evaluated by a non-compartmental analysis (with the use of WinNonlin® software, version 5.2).
Where a name gives a salt, the structure may show the parent alone.
assay_endpoint: Tmax (h)
Give bare numbers, in h.

Request: Tmax for Cc1cnc(Nc2ccc(OCCN3CCCC3)cc2)nc1Nc1cccc(S(=O)(=O)NC(C)(C)C)c1 [TG101348, dihydrochloride monohydrate] ?
Result: 2

---

- assay_text: Plasma pharmacokinetics of TG101348, non-compartmental analysis
- Format: in vivo, human
- run_parameters: human, plasma, oral; 800 mg/day (n = 5); multiple daily doses; Cycle 1, Day 28; median
Counter-ions that a name gives are not always drawn.
assay_endpoint: Tmax (h)
Answers are plain numbers, in h.

Request: Tmax for Cc1cnc(Nc2ccc(OCCN3CCCC3)cc2)nc1Nc1cccc(S(=O)(=O)NC(C)(C)C)c1 [TG101348, dihydrochloride monohydrate] ?
Result: 2.25

Numbers sourced from patent US20130252988A1.
